Biological target: PAR1 (Homo sapiens (Human))
Assay: Par-1 FLIPR assay (calcium, HEK 293 cells, PAR1 activating peptide)
Details: PAR1 selective receptor-activating peptide at 80% activation
Description: HEK 293 Cells were grown in media containing DMEM, 10% FBS pen/strep/L-Glutamine and non-essential amino acids. The cells were plated in 384-well PDL coated plates at 12000 cells/well and incubated overnight at 37° C./5% CO2. […] The FLIPR reads at an excitation wavelength of 480 nm and an emission wavelength of 535 nm, and performs 60 scans over a 1-2 min reading time. […]
In this section, each of the compounds is paired with its reported pIC50.
Just so you know, pIC50 here is -log10 of the concentration in molar units; reply with that number alone.

Field: example entries. Status: answers known.
>>> valuemeasured("Cc1cn([C@@]23CC(F)(F)[C@@H](C)[C@H](/C=C/c4ccc(-c5ccccc5C#N)cn4)[C@@H]2[C@@H](C)OC3=O)nn1")
8.85
>>> valuemeasured("C[C@H]1OC(=O)[C@]2(N)CC(F)(F)[C@@H](C)[C@H](/C=C/c3ccc(-c4ccccc4C#N)cn3)[C@H]12")
8.14
>>> valuemeasured("CC1[C@H](/C=C/c2ccc(-c3ccccc3C#N)cn2)C2[C@@H](C)OC(=O)[C@]2(C(O)c2cocn2)CC1(F)F (stereo partly shown) [Example 22a]")
8.72

Note: attention shifts to another entry.
query: Which pIC50 reading was recorded for the compound C[C@H]1OC(=O)[C@]2(CO)CC(F)(F)[C@@H](C)[C@H](/C=C/c3ccc(-c4ccccc4C#N)cn3)[C@H]12 ?
result: 8.57

----------
target: PAR1 (Homo sapiens (Human), UniProt P25116); assay: Par-1 FLIPR assay (calcium, HEK 293 cells, PAR1 activating peptide); conditions: PAR1 selective receptor-activating peptide at 80% activation
Sequence (P25116 22-425): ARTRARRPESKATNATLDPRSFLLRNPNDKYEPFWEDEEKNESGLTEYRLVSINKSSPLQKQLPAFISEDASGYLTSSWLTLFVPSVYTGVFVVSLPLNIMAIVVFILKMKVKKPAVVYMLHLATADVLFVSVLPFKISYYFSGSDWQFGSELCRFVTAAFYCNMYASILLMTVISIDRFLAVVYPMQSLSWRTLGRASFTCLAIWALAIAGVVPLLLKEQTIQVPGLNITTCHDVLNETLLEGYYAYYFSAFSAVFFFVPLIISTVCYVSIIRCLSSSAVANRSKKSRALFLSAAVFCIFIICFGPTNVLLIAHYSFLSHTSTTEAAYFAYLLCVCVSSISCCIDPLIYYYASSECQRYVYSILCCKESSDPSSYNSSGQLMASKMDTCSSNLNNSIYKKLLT
observedProperty: IC50 (nM)
The answer is to be given in nM; state only the numeric part.

Some compounds with known IC50 results, for comparison:
>>> valuemeasured("C[C@H]1OC(=O)[C@]2(O)CC(F)(F)[C@@H](C)[C@H](/C=C/c3ccc(-c4ccccc4OC(F)(F)F)cn3)[C@H]12")
4.5
>>> valuemeasured("C[C@H]1OC(=O)[C@@H]2CC(F)(F)[C@@H](C)[C@H](/C=C/c3ccc(-c4ccccc4C#N)cn3)[C@H]12")
1.6
>>> valuemeasured("C[C@H]1OC(=O)[C@]2(NCc3cncnc3)CC(F)(F)[C@@H](C)[C@H](/C=C/c3ccc(-c4ccccc4C#N)cn3)[C@H]12")
5.7
>>> valuemeasured("Cc1nnc(C[C@@]23CC(F)(F)[C@@H](C)[C@H](/C=C/c4ccc(-c5ccccc5Cl)cn4)[C@@H]2[C@@H](C)OC3=O)o1")
0.9
>>> valuemeasured("C[C@H]1OC(=O)[C@]2(Br)CC(F)(F)[C@@H](C)[C@H](/C=C/c3ccc(-c4ccccc4C#N)cn3)[C@H]12")
4.8
>>> valuemeasured("C[C@H]1OC(=O)[C@]2(NC3COC3)CC(F)(F)[C@@H](C)[C@H](/C=C/c3ccc(-c4ccccc4C#N)cn3)[C@H]12")
10.4
>>> valuemeasured("CO[C@@]12CC(F)(F)[C@@H](C)[C@H](/C=C/c3ccc(-c4ccccc4C#N)cn3)[C@@H]1[C@@H](C)OC2=O")
2.5
>>> valuemeasured("C[C@H]1OC(=O)[C@]2(C(=O)O)CC(F)(F)[C@@H](C)[C@H](/C=C/c3ccc(-c4cccc(F)c4)cn3)[C@H]12")
10.9

query: Entry C[C@H]1OC(=O)[C@]2(NC(=O)c3nccs3)CC(F)(F)[C@@H](C)[C@H](/C=C/c3ccc(-c4ccccc4C#N)cn3)[C@H]12 : reported IC50 = ?
result: 2.8

query: Another compound to look at: C[C@H]1OC(=O)[C@]2(NCc3cnccn3)CC(F)(F)[C@@H](C)[C@H](/C=C/c3ccc(-c4ccccc4C#N)cn3)[C@H]12
result: 4.4
